# EXPERIMENTAL TARGET: GST-MCL-1 (Homo sapiens)
# Sequence (Q07820 whole entry): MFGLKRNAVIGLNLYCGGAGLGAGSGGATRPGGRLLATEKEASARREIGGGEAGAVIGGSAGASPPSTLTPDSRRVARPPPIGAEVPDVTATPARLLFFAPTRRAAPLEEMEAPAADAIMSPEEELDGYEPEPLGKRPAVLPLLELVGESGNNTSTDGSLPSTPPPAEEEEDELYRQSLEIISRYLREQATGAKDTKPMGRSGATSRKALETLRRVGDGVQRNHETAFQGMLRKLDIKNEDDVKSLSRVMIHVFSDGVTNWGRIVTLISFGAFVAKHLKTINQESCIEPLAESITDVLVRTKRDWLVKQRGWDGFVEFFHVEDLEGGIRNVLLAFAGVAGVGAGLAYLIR
# MEASUREMENT DESCRIPTION: TR-FRET MCL-1 binding assay (competition with probe F-Bak)
# TEST SETTINGS: without HS; read-out: MCL-1 Binding Ki
PARAMETER MEASURED: Ki (nM)
Express the result in nM but write the number alone.

Entry CO[C@H]1O[C@H](COc2ccc(-c3nccc(COc4ccc5cc4C[C@H](C(=O)O)Oc4ncnc6sc(-c7ccc(F)cc7)c(c46)-c4ccc(c(Cl)c4C)O[C@H](CN4CCN(C)CC4)CO5)n3)cc2)[C@@H](O)[C@H](O)[C@@H]1O [Example 12] ; Ki = 0.603

Entry CO[C@H]1O[C@H](COc2ccc(-c3nccc(COc4ccc5cc4C[C@H](C(=O)O)Oc4ncnc6sc(-c7ccc(F)cc7)c(c46)-c4ccc(c(Cl)c4C)CN(CCN4CCN(C)CC4)C5)n3)cc2)[C@@H](O)[C@H](O)[C@@H]1O [Example 10] ; Ki = 0.06

Entry COCCOCCOc1cc(COc2ccc3cc2C[C@H](C(=O)O)Oc2ncnc4sc(-c5ccc(F)cc5)c(c24)-c2c(C)c(Cl)c(c(Cl)c2C)O[C@H](CN2CCN(C)CC2)CO3)nc(-c2ccccc2OC)n1 [Example 169] ; Ki = 0.03

Entry Cc1c(Cl)c2c(Cl)c(C)c1-c1c(-c3ccc(F)cc3)sc3ncnc(c13)O[C@@H](C(=O)O)Cc1cc(ccc1OCc1ccnc(C3=CCS(=O)(=O)CC3)n1)OC[C@@H](CN1CCN(C)CC1)O2 [Example 34] ; Ki = 0.016

###

# EXPERIMENTAL TARGET: GST-MCL-1 (Homo sapiens)
# MEASUREMENT DESCRIPTION: TR-FRET MCL-1 binding assay (competition with probe F-Bak)
# TEST SETTINGS: MCL-1 Binding Ki (nM, 10% HS), in the presence of 10% HS (human serum)
// returns Condition not met unless Ki is strictly below 0.3 nM, in which case Condition met

Problem: Consider "COCCOCCOCCOCCOCCOCCOCCOCCOCCOCCOCCOCCOCC1(c2nccc(COc3ccc4cc3C[C@H](C(=O)O)Oc3ncnc5sc(-c6ccc(F)cc6)c(c35)-c3c(C)c(Cl)c(c(Cl)c3C)O[C@H](CN3CCN(C)CC3)CO4)n2)CCC1" . Does its Ki lie strictly below 0.3 nM?
Solution: Condition met

Problem: Consider "Cc1c(Cl)c2c(Cl)c(C)c1-c1c(-c3ccc(F)cc3)sc3ncnc(c13)O[C@@H](C(=O)O)Cc1cc(ccc1OCc1ccnc(N3CCP(C)(=O)CC3)n1)OC[C@@H](CN1CCN(C)CC1)O2" . Does its Ki lie strictly below 0.3 nM?
Solution: Condition not met

Problem: Consider "COCCOCCOCCOCCOCCO[C@H]1CC[C@H](c2nccc(COc3ccc4cc3C[C@H](C(=O)O)Oc3ncnc5sc(-c6ccc(F)cc6)c(c35)-c3c(C)c(Cl)c(c(Cl)c3C)O[C@H](CN3CCN(C)CC3)CO4)n2)CC1" . Does its Ki lie strictly below 0.3 nM?
Solution: Condition met

Problem: Consider "COCCOCCOCCOCCOCCOCC1(c2nccc(COc3ccc4cc3C[C@H](C(=O)O)Oc3ncnc5sc(-c6ccc(F)cc6)c(c35)-c3c(C)c(Cl)c(c(Cl)c3C)O[C@H](CN3CCN(C)CC3)CO4)n2)CCCCC1" . Does its Ki lie strictly below 0.3 nM?
Solution: Condition met

Problem: Consider "Cc1c(Cl)c2c(Cl)c(C)c1-c1c(-c3ccc(F)cc3)sc3ncnc(c13)O[C@@H](C(=O)O)Cc1cc(ccc1OCc1ccnc(-c3cccc(CN4CCOCC4)c3)n1)OC[C@@H](CN1CCN(C)CC1)O2" . Does its Ki lie strictly below 0.3 nM?
Solution: Condition met

Problem: Consider COCCOCCOCC1(F)CC=C(c2nccc(COc3ccc4cc3C[C@H](C(=O)O)Oc3ncnc5sc(-c6ccc(F)cc6)c(c35)-c3c(C)c(Cl)c(c(Cl)c3C)O[C@H](CN3CCN(C)CC3)CO4)n2)CC1 (single isomer, unassigned) [Example 87] . Does its Ki lie strictly below 0.3 nM?
Solution: Condition met

Problem: Consider "Cc1c(Cl)c2c(Cl)c(C)c1-c1c(-c3ccc(F)cc3)sc3ncnc(c13)O[C@@H](C(=O)O)Cc1cc(ccc1OCc1ccnc(-c3ccc(OCCN4CC5(COC5)C4)cc3)n1)OC[C@@H](CN1CCN(C)CC1)O2" . Does its Ki lie strictly below 0.3 nM?
Solution: Condition met

Problem: Consider "Cc1c(Cl)c2c(Cl)c(C)c1-c1c(-c3ccc(F)cc3)sc3ncnc(c13)O[C@@H](C(=O)O)Cc1cc(ccc1OCc1ccnc(-c3ccc(OCCN4CC5CCC(C4)O5)cc3)n1)OC[C@@H](CN1CCN(C)CC1)O2" . Does its Ki lie strictly below 0.3 nM?
Solution: Condition not met

Problem: Consider COCCOCCOC[C@@]1(F)CC=C(c2nccc(COc3ccc4cc3C[C@H](C(=O)O)Oc3ncnc5sc(C6=CCCC6)c(c35)-c3c(C)c(Cl)c(c(Cl)c3C)O[C@H](CN3CCN(C)CC3)CO4)n2)CC1 (relative stereo) . Does its Ki lie strictly below 0.3 nM?
Solution: Condition not met

Problem: Consider "COCCOCCOCCOCc1ccc(-c2nccc(COc3ccc4cc3C[C@H](C(=O)O)Oc3ncnc5sc(-c6ccc(F)cc6)c(c35)-c3c(C)c(Cl)c(c(Cl)c3C)O[C@H](CN3CCN(C)CC3)CO4)n2)c(OCCOCCOCCOC)c1" . Does its Ki lie strictly below 0.3 nM?
Solution: Condition met

Problem: Consider COCCOCCOCCOCCOCCOCC1(F)CC=C(c2nccc(COc3ccc4cc3C[C@H](C(=O)O)Oc3ncnc5sc(-c6ccc(F)cc6)c(c35)-c3c(C)c(Cl)c(c(Cl)c3C)O[C@H](CN3CCN(C)CC3)CO4)n2)CC1 (single isomer, unassigned) [Example 97] . Does its Ki lie strictly below 0.3 nM?
Solution: Condition met

Problem: Consider "Cc1c(Cl)c2c(Cl)c(C)c1-c1c(-c3ccc(F)cc3)sc3ncnc(c13)O[C@@H](C(=O)O)Cc1cc(ccc1OCc1ccnc(N3C[C@@H]4[C@H](C3)[C@H]4C(=O)O)n1)OC[C@@H](CN1CCN(C)CC1)O2" . Does its Ki lie strictly below 0.3 nM?
Solution: Condition not met

Problem: Consider Cc1c(Cl)c2c(Cl)c(C)c1-c1c(-c3ccc(F)cc3)sc3ncnc(c13)O[C@@H](C(=O)O)Cc1cc(ccc1OCc1ccnc(-c3ccc(S(C)(=N)=O)cc3)n1)OC[C@@H](CN1CCN(C)CC1)O2 (some centres unmarked) . Does its Ki lie strictly below 0.3 nM?
Solution: Condition met

Problem: Consider COCCOCCO[C@]1(c2nccc(COc3ccc4cc3C[C@H](C(=O)O)Oc3ncnc5sc(-c6ccc(F)cc6)c(c35)-c3c(C)c(Cl)c(c(Cl)c3C)O[C@H](CN3CCN(C)CC3)CO4)n2)CC[C@@H](OCC2COCCO2)CC1 (some centres unmarked) . Does its Ki lie strictly below 0.3 nM?
Solution: Condition met

Problem: Consider "Cc1c(Cl)c2c(Cl)c(C)c1-c1c(-c3ccc(F)cc3)sc3ncnc(c13)O[C@@H](C(=O)O)Cc1cc(ccc1OCc1ccnc(N3CCOCCOCCOCCOCCOCC3)n1)OC[C@@H](CN1CCN(C)CC1)O2" . Does its Ki lie strictly below 0.3 nM?
Solution: Condition not met

Problem: Consider Cc1c(Cl)c2c(Cl)c(C)c1-c1c(-c3ccc(F)cc3)sc3ncnc(c13)O[C@@H](C(=O)O)Cc1cc(ccc1OCc1ccnc(N3CC4C(C3)C4(F)F)n1)OC[C@@H](CN1CCN(C)CC1)O2 (some centres unmarked) . Does its Ki lie strictly below 0.3 nM?
Solution: Condition not met

Problem: Consider "CO[C@@H]1CO[C@H]2[C@@H]1OC[C@H]2OCCOc1nccc(COc2ccc3cc2C[C@H](C(=O)O)Oc2ncnc4sc(-c5ccc(F)cc5)c(c24)-c2c(C)c(Cl)c(c(Cl)c2C)O[C@H](CN2CCN(C)CC2)CO3)n1" . Does its Ki lie strictly below 0.3 nM?
Solution: Condition not met
